What Inhibition 1 was measured for each of the following?
Biological target: cloned human or rodent CNS receptors, channels, and transporters (PDSP panel) (Homo sapiens)
Construct: expressed in transfected cells
Sequence (P46098 24-478): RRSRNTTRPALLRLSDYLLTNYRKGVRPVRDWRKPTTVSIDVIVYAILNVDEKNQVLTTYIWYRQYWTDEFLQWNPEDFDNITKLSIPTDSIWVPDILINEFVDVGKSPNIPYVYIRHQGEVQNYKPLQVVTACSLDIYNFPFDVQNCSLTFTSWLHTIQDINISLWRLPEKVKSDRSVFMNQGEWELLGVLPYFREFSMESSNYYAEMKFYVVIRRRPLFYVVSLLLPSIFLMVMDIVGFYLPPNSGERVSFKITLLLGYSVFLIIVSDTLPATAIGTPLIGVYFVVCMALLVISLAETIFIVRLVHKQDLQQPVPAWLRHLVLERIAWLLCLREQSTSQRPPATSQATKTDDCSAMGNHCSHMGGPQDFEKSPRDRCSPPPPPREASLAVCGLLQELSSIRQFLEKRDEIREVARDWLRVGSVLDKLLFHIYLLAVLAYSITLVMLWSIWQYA
Assay: PDSP GPCR panel primary binding assays at 10 μM
Details: Receptor 5-HT3; primary assay, 10 μM
Method: GPCR panel: Screening against the receptors within the PDSP panel offers an assessment of off-target pharmacological activity at cloned human or rodent CNS receptors, channels, and transporters that could confound CNS-related phenotypes. A total of 46–47 primary binding assays were run in quadruplicate on these compounds at 10 μM, with follow-up secondary binding assays in 11-point dose-response in triplicate for select compounds versus select receptors. […]
Write the number in % without appending the unit.

Task: Tell me the measured Inhibition 1 of CCCCNc1ncc2c(-c3ccc(CN4CCN(C)CC4)cc3)cn([C@H]3CC[C@H](O)CC3)c2n1 [UNC2025C, UNC2025] , please.
Result: 11.35

Task: # iterate: c1cn2cc(-c3ccc4cn[nH]c4c3)nc(Nc3ccc(N4CCOCC4)cc3)c2n1 [UNC10302678A, Entospletinib (GS-9973)]
Result: 20.59

Task: Next entry: Cl.NC(=O)c1cnc(N[C@@H]2CCCC[C@@H]2N)nc1Nc1cccc(-n2nccn2)c1 [UNC10302682A, P505-15 (PRT06207 HCl)]
Result: 66.83

Task: Item: O=c1oc2ccccc2cc1-c1cn2cc(Cc3ccc(F)cc3)sc2n1 [UNC10302680A, iMDK]
Result: 1.94
